test_protocol: Photostability under UV irradiation (photolysis kinetics)
Format: physicochemical
condition: aqueous solution 26.6 μmol/L, 15 W UV lamp 254 nm, 25 °C
reported_endpoint: K, first-order photolysis rate constant (h⁻¹)
Answers are plain numbers, in h⁻¹.

Example results:
CCCCCCCCC=CCCCCCCCC(=O)O.CCCN(CCOc1c(Cl)cc(Cl)cc1Cl)C(=O)n1ccnc1 [[Pro][OleA]]	0.552
CCCN(CCOc1c(Cl)cc(Cl)cc1Cl)C(=O)n1ccnc1.O=C(O)/C=C/c1ccccc1 [[Pro][CinA]]	0.305
CC(=O)C(=O)O.CCCN(CCOc1c(Cl)cc(Cl)cc1Cl)C(=O)n1ccnc1 [[Pro][PyrA]]	0.383

Let us examine a further case.
Please fill in: K, first-order photolysis rate constant reported for CCCN(CCOc1c(Cl)cc(Cl)cc1Cl)C(=O)n1ccnc1.O=C(O)c1ccccc1 [[Pro][BenA]] = 0.774
